Test system: RAW-Dual
method: NF-kB SEAP reporter activity, fold change vs agonist alone; cytotoxicity flag (confluency mask): cytotoxic (confluency <70% of control); higher = enhanced NF-kB activity
condition_notes: agonist: Pam2CSK4 (TLR2/6) 0.1 ug/mL
Over roughly 2,900 compounds, “NF-kB SEAP reporter activity, fold change vs agonist alone” has its median near 0.99; the highest 2% begin near 2.6. Shown is part of a subset that was picked to be rich in the highest values.
Returns one of YES or NO; YES when NF-kB SEAP reporter activity is >= 0.4.

Previously resolved entries follow.
compound	answer_label
CNC(C)C(=O)NC(C(=O)N1CCCC1C(=O)NC1c2ccccc2CC1OCC#CC#CCOC1Cc2ccccc2C1NC(=O)C1CCCN1C(=O)C(NC(=O)C(C)NC)C1CCCCC1)C1CCCCC1 (stereo unspecified) (library stock concentration (final ~1000-fold dilution): 10 mM water)	YES
COc1cc2nc(N3CCCN(C)CC3)nc(NC3CCN(Cc4ccccc4)CC3)c2cc1OC.Cl.Cl.Cl (library stock concentration (final ~1000-fold dilution): 10 mM)	NO
Br.CCCc1cc(-c2nc(-c3ccc(C)cc3)cs2)ccn1 (library stock concentration (final ~1000-fold dilution): 10 mM)	YES

Next:
Ask: Quick check: does O=C(Oc1cccc(F)c1OC(=O)c1cccc(O)c1)c1cccc(O)c1 (library stock concentration (final ~1000-fold dilution): 10 mM) have NF-kB SEAP reporter activity greater than or equal to 0.4?
Reply: YES
